Where these numbers come from: ChEMBL document CHEMBL5725428

experimental-target: Prostaglandin E2 receptor EP2 subtype (Homo sapiens, UniProt P43116)
Sequence (P43116 whole entry): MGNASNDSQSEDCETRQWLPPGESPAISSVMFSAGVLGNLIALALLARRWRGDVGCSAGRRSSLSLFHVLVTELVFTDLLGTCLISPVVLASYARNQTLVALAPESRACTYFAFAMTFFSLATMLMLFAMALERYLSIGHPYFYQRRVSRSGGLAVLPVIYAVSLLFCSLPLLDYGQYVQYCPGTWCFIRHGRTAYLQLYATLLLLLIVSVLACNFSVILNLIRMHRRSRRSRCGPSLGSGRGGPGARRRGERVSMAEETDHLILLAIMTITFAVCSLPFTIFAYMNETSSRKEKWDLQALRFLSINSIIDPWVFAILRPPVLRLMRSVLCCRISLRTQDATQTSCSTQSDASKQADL
method-description: cAMP Assay: A 384-well drug plate was prepared to contain 6 test compounds, PGE2 and cAMP in 16 serial dilutions in triplicate, using a Biomek station. HEK-EBNA cells expressing a target PG receptor subtype (EP2 or EP4) were suspended in a stimulation buffer (HBSS, 0.1% BSA, 0.5 mM IBMX and 5 mM HEPES, pH 7.4) in a density of 10^4 cells/5 microliters. The reaction was initiated by mixing 5 microliters drug dilutions with 5 microliters of HEK-EBNA cells in a well, carried out for 30 min at room temperature, and followed by the addition of 5 microliters anti-cAMP acceptor beads in the control buffer with Tween-20 (25 mM NaCl, 0.03% Tween-20, 5 mM HEPES, pH 7.4). After 30 min in the dark at room temperature, the mixtures were incubated with 15 microliters biotinylated-cAMP/streptavidin donor beads in Lysis/Detection buffer (0.1% BSA, 0.3% Tween-20 and 5 mM HEPES, pH 7.4) for 45 min at room temperature. Fluorescence changes were read using a Fusion-alpha microplate reader.
readout-name: Ki

Look up Ki: Cc1cc(Cl)ccc1-c1cc(C(O)/C=C/[C@H]2CCC(=O)N2CCCc2ccc(C(=O)O)cc2)ccc1F (single isomer, unassigned)
7.49 µM
